Target: T1, Extracellular domain of cyno PD1 (cPD1-ECD) (Macaca fascicularis (cynomolgus))
T1 construct: Expressed with a hexahistidine tag or as Fc fusion; also called cynoPD1-ECD; cynoPD-1-ECD
T1 chain: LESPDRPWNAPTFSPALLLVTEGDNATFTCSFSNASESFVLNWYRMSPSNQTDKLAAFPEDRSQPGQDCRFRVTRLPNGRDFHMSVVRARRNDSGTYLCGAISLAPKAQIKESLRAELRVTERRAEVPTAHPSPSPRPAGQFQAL
Experiment: SPR ProteOn, captured mAb, cynoPD1-ECD analyte;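 also: ProteOn XPR36 SPR with antibodies held by anti-IgG Fc on a GLC chip, kinetic constants obtained by fitting to a Langmuir 1:1 binding model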
measured.metric: koff (s⁻¹)
Number only, in s⁻¹; omit the unit.

Solved entries (count: 2):
What does the data say about its koff? Entry: PD1B201 (antibody, V domains shown, also called PD1H164/PD1L190) VH: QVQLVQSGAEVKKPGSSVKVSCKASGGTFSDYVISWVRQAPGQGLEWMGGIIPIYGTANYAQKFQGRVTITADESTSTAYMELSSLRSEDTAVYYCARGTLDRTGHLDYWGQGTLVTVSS VL: EIVLTQSPATLSLSPGERATLSCRASQSVSNYLAWYQQKPGQAPRLLIYDASNRATGIPARFSGSGSGTDFTLTISSLEPEDFAVYYCQQRNYWPLTFGQGTKVEIK
0.000293

# iterate: PD1B71 (antibody, V domains shown, Tested as IgG2sigma/kappa; also called PD1H108/PH9L3) VH: QVQLVQSGAEVKKPGSSVKVSCKASGGTFSSYAISWVRQAPGQGLEWMGGIIPIFGTANYAQKFQGRVTITADESTSTAYMELSSLRSEDTAVYYCARGTLDRTGHLDYWGQGTLVTVSS VL: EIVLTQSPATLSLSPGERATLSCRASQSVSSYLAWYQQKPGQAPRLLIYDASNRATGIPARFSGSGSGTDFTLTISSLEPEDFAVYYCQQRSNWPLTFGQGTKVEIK
0.0196

// switching to the query binder
What value of koff has been reported for the following binder? PD1B70 (antibody, V domains shown, Tested as IgG2sigma/kappa; also called PD1H107/PH9L3) VH: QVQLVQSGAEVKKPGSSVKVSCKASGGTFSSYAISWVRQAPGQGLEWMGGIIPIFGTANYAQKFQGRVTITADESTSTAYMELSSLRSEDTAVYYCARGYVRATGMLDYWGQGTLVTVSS VL: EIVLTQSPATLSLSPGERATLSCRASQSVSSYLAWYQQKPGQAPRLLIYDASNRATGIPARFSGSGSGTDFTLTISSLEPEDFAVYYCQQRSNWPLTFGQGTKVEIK
0.0222
